All figures here come from a melting point compilation (Tetko et al.; mined from patent text by program, amines drawn as free bases though some values may be those of a salt).

Could you please report measured melting point for the items listed next?

Observe how each entry below is paired with its result.
molecule="Cc1ccc(S(=O)(=O)OCC2Cc3cc(C(F)(F)F)cc(Br)c3O2)cc1 (centres undefined)" quantity_measured="melting point" readout_value="95 to 97 °C"
molecule=CCc1nc2c(C)nc(C)cc2n1-c1ccc(CCNC(=O)NS(=O)(=O)c2ccc(C)cc2)cc1 quantity_measured="melting point" readout_value="143 °C"

Give one value of melting point per listed molecule.
1. C[C@]1(Cn2cc([N+](=O)[O-])nc2Cl)CO1
2. Cn1ncc2c1-c1c(S(C)(=O)=O)sc(S(N)(=O)=O)c1CC2
3. CCOC(=O)c1cn(Cc2csnn2)c2cc(F)c(F)cc2c1=O
4. O=C(NC(=O)c1cc(F)c(F)cc1Cl)Nc1cccnc1N1CCC(C(=O)NCCO)CC1
5. CN1C(=O)CC[C@]2(C)c3ccc(-c4c(F)c(F)c(F)c(F)c4F)cc3CC[C@@H]12
6. CCCc1c(C(=O)C(C)C)c2ccc(C(N)=O)cc2n1Cc1ccccc1C(N)=O

(A)
1: 65.5 to 67 °C; 2: 228 to 229 °C; 3: 234 to 237 °C; 4: 203 °C; 5: 92 to 100 °C; 6: 273 to 274 °C

(Q) So what's the measured melting point for this one? O=[N+]([O-])c1cc(Cl)cc2c1OC[C@H](CO)O2
(A) 83 to 88 °C

----------
Could you please report measured melting point for the items listed next?

Observe how each entry below is paired with its result.
compound=O=C(/C=C/C=C(c1cccc([N+](=O)[O-])c1)c1cccc([N+](=O)[O-])c1)NCCCCc1cccnc1 readout_value="158 to 159 °C"
compound="O=C1COCC2=C1C(c1ccc(F)c(Br)c1)C1=C(CNC1=O)N2 (centres undefined)" readout_value="> 260 °C"
compound=Cc1ccc(-n2c(-c3cc(C)ccc3C=Cc3ccccc3)ccc2-c2cc(C)ccc2C=Cc2ccccc2)cc1 readout_value="314 to 316 °C"
compound=CC(C)Nc1cccnc1N1CCN(C(=O)c2cc3cc(NC(=O)N4CCN(C)CC4)ccc3[nH]2)CC1 readout_value="200 °C"

Give one value of melting point per listed compound.
1. O=C(O)CC1(c2ccc(Cl)c(Cl)c2)CNC(=O)C1 (centres undefined)
2. O=c1cc(-c2nnn[nH]2)oc2c(COc3ccc(OCc4ccc5ccccc5n4)cc3)cccc12

(A)
1. 191 to 195 °C
2. > 250 °C

Give one value of melting point per listed compound.
1. CCC(=O)N1N=C(c2ccc(N)cc2)c2cc(C)ccc2CC1C (centres undefined)
2. CC#CCOc1cc(Nc2cccc(F)c2F)ncn1
3. Cc1c(C(F)(F)F)cnn(-c2cc(OCC3CO3)c(Cl)cc2F)c1=O (centres undefined)

(A)
["166 to 168 °C", "148 °C", "127 °C"]

----------
Quantity Measured: melting point

Observe how each entry below is paired with its result.
compound="COC(=O)c1ccc(CC(C)NCC(O)c2ccccc2)cc1 (stereo unspecified)" quantity_measured="melting point" readout_value="82 to 84 °C"
compound=Fc1ccccc1C1=NCc2cncn2-c2ccc(Cl)cc21 quantity_measured="melting point" readout_value="148 to 151 °C"
compound=Nc1ccc(C2=NNC(=O)Cc3cc4c(cc32)OCO4)cc1 quantity_measured="melting point" readout_value="242 to 244 °C"

Give one value of melting point per listed compound.
1. N#Cc1[nH]c2ccccc2c1Cl
2. Cc1cc(C#N)ccc1-c1cccc(-c2nc3cc(C#N)ccc3[nH]2)c1
3. Cc1nc2c(cc1Cl)C(=O)N(C)CC(CCCl)O2 (stereo unspecified)

(A)
150 to 154 °C
247 to 250 °C
65 to 69 °C

----------
Quantity Measured: melting point

Observe how each entry below is paired with its result.
molecule=Cc1ccc2c(CCNCC#N)c[nH]c2c1 readout_value="92 °C"
molecule=CC(=O)NC[C@@H]1CCCc2cc(Sc3ccccc3)cc(F)c21 readout_value="94.6 to 95.9 °C"
molecule=Cc1ncc([N+](=O)[O-])n1CCN(CCCCN(CCn1c([N+](=O)[O-])cnc1C)CCn1c([N+](=O)[O-])cnc1C)CCn1c([N+](=O)[O-])cnc1C readout_value="194 to 196 °C"
molecule="CC1(C)C=C(C(=O)CCCN2CCC(C(O)(c3ccccc3)c3ccccc3)CC2)C=CC1CCO (centres undefined)" readout_value="135 to 137 °C"
molecule="O=C1NN=C(c2ccc(NC(=O)C(F)(F)F)cc2)C2CC12 (centres undefined)" readout_value="242 to 243 °C"

Give one value of melting point per listed molecule.
1. CCCCOc1c(CNC(=O)OC(C)(C)C)n(CC(C)C)c(=O)c2ccc(-c3nnn[nH]3)cc12
2. CCCC1CCC(c2ccc(-c3ccc(N=C=S)cc3)cc2)CC1 (centres undefined)
3. O=C(CC12CC3CC(CC(C3)C1)C2)Nc1cccc2nc(CCCNCCCO)ccc12

(A)
["152 to 153 °C", "149 °C", "130 to 135 °C"]

(Q) So what's the measured melting point for this one? OCc1ccc2c(c1)ncn2-c1cccc(-c2cccnc2)c1
(A) 183 to 185 °C

----------
Quantity Measured: melting point

Observe how each entry below is paired with its result.
smiles_string=COc1cc2c(cc1OC)S(=O)(=O)CCC(C(=O)N1CCN(C(=O)c3cc(OC)c(OC)c(OC)c3)CC1)=C2 readout_value="226 to 229 °C"
smiles_string=Nc1c(Br)cc(Oc2cc(Br)c(N)c(Br)c2)cc1Br readout_value="166 to 167 °C"
smiles_string=Cc1cc(-c2cc(N)ccc2F)cc(C)n1 readout_value="142 to 145 °C"

Give one value of melting point per listed compound.
1. O=C1CCc2cc(Cl)ccc2C1
2. Cc1nc(NC(=O)Nc2ccc(N3CCN(C(=O)Nc4ccc(OCCO)cc4C(F)(F)F)CC3)cc2)sc1C
3. C[C@H]1Cn2c(=O)[nH]c3c(Br)ccc(c32)CN1C(=O)OC(C)(C)C
4. C=CC=CN(C(=O)CCl)c1c(C)cccc1C

(A)
["121 to 122 °C", "166 to 167 °C", "229 °C", "88 °C"]

Give one value of melting point per listed compound.
1. CS(=O)(=O)c1ccc(-c2cnn(-c3cccc(S(C)(=O)=O)c3)c(=O)c2-c2ccc(F)cc2)cc1
2. O=C(c1ccc(F)cc1)c1ccc(Br)nc1
3. CSc1ccc2c(=O)c(OS(C)(=O)=O)cn(C)c2c1

(A)
["141 to 142 °C", "97 to 98 °C", "182 °C"]

----------
Could you please report measured melting point for the items listed next?

Observe how each entry below is paired with its result.
molecule="COc1cc(C2NC(C(=O)O)CS2)ccc1OCC(=O)NCCO[N+](=O)[O-] (stereo not given)" readout_value="151 to 152 °C"
molecule=CC(C)CC(=O)Nc1c(C(=O)c2cc(Cl)ccn2)[nH]c2cc(Cl)ccc12 readout_value="183 to 184 °C"
molecule=Cc1cc2c(cc1Br)N1CCc3cccc(c31)C(N1CCN(C)CC1)=N2 readout_value="177 °C"
molecule=CC(C)NC(=O)c1c(C(=O)O)ccc(Cl)c1Cl readout_value="155 to 156 °C"
molecule=CCOC(=O)/C=C/c1ccc(-c2ccc(O)c(C34CC5CC(CC(C5)C3)C4)c2)c(C)c1 readout_value="193 to 195 °C"
molecule=Cc1oc(/C=C/c2ccccc2)nc1COc1ccc(CCCn2ccnc2)cc1 readout_value="94 to 95 °C"
molecule=CN=Cc1c(C(=O)OC)[nH]c2c(C)ccc(C)c12 readout_value="261 to 262 °C"
molecule="O=C(Nc1cccc(-c2nnn[nH]2)c1)NC1N=C(c2ccccc2F)c2cccc(Cl)c2N(CC(=O)N2CC3CCC(CC3)C2)C1=O (stereo not given)" readout_value="172 to 180 °C"

Give one value of melting point per listed molecule.
1. O=c1ccc(-c2c(-c3ccccc3)nn3ccccc23)nn1C1CCNCC1
2. CN1CCc2cc[nH]c2C(c2ccccc2)C1 (stereo not given)

(A)
1. 115 to 117 °C
2. 90 to 91 °C

Give one value of melting point per listed molecule.
1. CC1=C(C(=O)OCCC#N)C(c2ccccc2Cl)C(c2nnco2)=C(C)N1 (stereo not given)
2. O=[N+]([O-])c1cc(CO)c(Cl)cc1F

(A)
180 to 182 °C
39 to 41 °C

Give one value of melting point per listed molecule.
1. CC(C)C(O)(Cn1cncn1)c1ccc(C#CI)cc1 (stereo not given)
2. COC(=O)c1cc(Cl)c2cccc(OC)c2n1
3. O=C1c2sc3ccccc3c2C(=O)c2sc3ccccc3c21
4. COc1ccc(-c2sc3cc(OC)ccc3c2C(=O)O)cc1
5. CCCc1cccnc1N(CC)C1CCN(C(=O)c2ccc[nH]2)CC1
6. CCC[C@@H]([C@@H](CC(C)C)C(=O)N[C@@H](CCCNCN=N[N+](=O)[O-])C(=O)Nc1nccs1)N(O)C=O

(A)
1: 122 °C; 2: 139 to 141 °C; 3: 315 °C; 4: 166 to 170 °C; 5: 115 to 116 °C; 6: 130 to 136 °C

Give one value of melting point per listed molecule.
1. COc1cccc(-n2c(=O)c3c(c4cccnc42)OCC3)c1
2. CC(C)(C)Sc1c(CC(C)(C)C(=O)O)n(Cc2ccc(Cl)cc2)c2ccc(OCc3cccs3)cc12
3. COc1ccc(C2(C=O)CCC(=O)CC2)cc1OC1CCCC1
4. CC(C)N1C(=O)c2cccc3c(S(C)(=O)=O)ccc1c23
5. COC(=O)c1c(F)cc(OCCNC(=O)C2Cc3ccccc3N2S(=O)(=O)c2ccc(-c3cc(C(F)(F)F)ccc3Cl)cc2)cc1F (stereo not given)
6. NC1=CN(N)NN=C1c1cccc(Cl)c1Cl
7. O=C1CC(=O)NC(c2ccc(Cl)cc2)=N1
8. N#Cc1c(-c2cccc(C(=O)NCCO)c2)cc(-c2ccccc2O)nc1NC(=O)c1cccs1

(A)
["> 260 °C", "204 to 205 °C", "55 to 57 °C", "164 to 165 °C", "78 °C", "216 to 218 °C", "120 to 121 °C", "218 to 219 °C"]

Give one value of melting point per listed molecule.
1. Cc1n[nH]c2c1C[C@@H]1CN(C)CC[C@H]1C2 (relative stereo)
2. CC(=O)N=C(O)c1cc(C(O)=NCCOC(C)=O)c(C(=O)O)cc1C(=O)O
3. CC(C)(C)OC(=O)C(CN)CC(=O)N1CCNCC1 (stereo not given)
4. COc1ccc(C(=O)COc2ccc(C(=O)OCc3ccccc3)c(O)c2)cc1C12CC3CC(CC(C3)C1)C2
5. NS(=O)(=O)c1cccc(-c2cccc(-c3nc(-c4ccc(C(F)(F)F)cc4)cc(C(F)(F)F)n3)c2)c1
6. CCc1ccnc(C(=O)c2[nH]c3ccc(Cl)cc3c2CC(=O)O)c1Cl
7. CCn1ccc(=O)c(O)c1C

(A)
1: 160 to 162 °C; 2: 176 to 178 °C; 3: 142 °C; 4: 129 °C; 5: 267 °C; 6: 220 °C; 7: 204 to 205 °C

Give one value of melting point per listed molecule.
1. O=C(O)C1Oc2cc(Cl)c(S(=O)(=O)c3cccc(Cl)c3)cc2O1 (stereo not given)
2. Cc1csc(Cl)c1NC(=S)Nc1cscc1N
3. N#CC(=NNc1ccc(C(F)(F)F)cc1)C(=O)NCc1ccc(Cl)nc1
4. CC(Oc1ccc(Oc2ccc3cc(Cl)ccc3n2)cc1)C(=O)O (stereo not given)
5. COC(=O)Cc1sc(=S)[nH]c1COc1ccccc1

(A)
151 to 153 °C
132 to 135 °C
204 to 205 °C
130 °C
138 °C

Give one value of melting point per listed molecule.
1. Cc1ccc(S(=O)(=O)N2CCC(c3ccc(O)cc3O)CC2)cc1
2. CS/C(=N\O)C(F)(F)F

(A)
1: 206 to 207 °C; 2: 52 to 54 °C
